Measurement Protocol: Selectivity index, ratio of IC50 for HEK293 cells to IC50 for human MCF7 cells
Type: toxicity
Condition Summary: HEK293 cells versus MCF7 cells, read-out: Ratio IC50
Measured Quantity: selectivity ratio
Give the value as a plain number.

### Prompt Given `COc1ccc(/C=C/C(=O)c2ccc(OCC(=O)N3CCCC3)cc2)cc1` , respond with its selectivity ratio.
### Response 2.41

* * *

Measurement Protocol: Selectivity index, ratio of IC50 for HEK293 cells to IC50 for human MDA-MB-468 cells
Assay type: toxicity
Condition Summary: HEK293 cells versus MDA-MB-468 cells, read-out: Ratio IC50
Measured Quantity: selectivity ratio
Give the value as a plain number.

### Prompt Given `COc1ccc(/C=C/C(=O)c2ccc(OCC(=O)N3CCCC3)cc2)cc1` , respond with its selectivity ratio.
### Response 3.85
